Source listed as PubChem BioAssay (NCI).

tested on: U251 CNS; assay: NCI-60 one-dose screen, 48 h; details: 10 µM unless noted
This is part of a sample that, as a whole, favours compounds with a hit. Of some 83,000 tested, about 20% had one in any assay. Calls of active or inactive are those of the source. Rule for the calls: active = growth percent below 10; inactive = the rest.
Could you please pick one outcome from this set? active, inactive

Before answering, review these 3 worked examples.
[[record]]
compound = "COc1cc(-c2cc(-c3ccc(Nc4ncnc5cc(Cl)ccc45)cc3)nc(N3CCCCC3)n2)cc(OC)c1OC"
group_label = "inactive"

[[record]]
compound = "O=C(O)CSCc1nnc2n(Cc3ccccc3)c(=O)c3c4c(sc3n12)CCCC4"
group_label = "inactive"

[[record]]
compound = "CCN(CC)c1ccc(/C=C/c2ccc3cc(C)ccc3[n+]2CC)cc1"
group_label = "active"


Please indicate how the test categorized `Nc1cc(NN=C(c2ccc(O)cc2)c2ccc(O)cc2)c([N+](=O)[O-])cc1[N+](=O)[O-]` .
active

Please indicate how the test categorized `Cc1ccc(S(=O)(=O)Nc2ccccc2)cc1N` .
inactive

Please indicate how the test categorized `O=C(N[C@@H]1CCCc2ccccc21)[C@H](CCC(=O)N1CCN(C2CCCCC2)CC1)N1C(=O)[C@@H](N2C(=O)OC[C@@H]2c2ccccc2)[C@H]1/C=C/c1ccccc1` .
inactive

Please indicate how the test categorized `COc1cc2c(O)n(CCCN3CCOCC3)c3c4cnc5cccc(c(=O)c3c2cc1OC)c54` .
inactive

Please indicate how the test categorized `COc1ccc(-c2ccc(NNC(=O)c3ccc(F)cc3)nn2)cc1OC` .
inactive

Please indicate how the test categorized `c1ccc2c(c1)CN(CCCN1CCOCC1)C2` .
inactive

Please indicate how the test categorized CC1Cc2c(Cl)ncnc2N(C)c2ccc(O)cc21 (centres undefined) .
inactive

Please indicate how the test categorized `Cc1ccc(Oc2c(/C=N/NC(=O)Cn3c(=O)sc4ccccc43)c(C)nn2-c2ccccc2)cc1` .
inactive

Please indicate how the test categorized N#CC1C(=O)NC(c2ccccc2[N+](=O)[O-])c2sc3c(F)cccc3c21 (centres undefined) .
inactive

----------
test system: HCT-116 colon; experiment: NCI-60 one-dose screen, 48 h; settings: 10 µM unless noted
The panel holds about 83,000 compounds, 20% with a hit somewhere; the sample as a whole holds those more often. The source made the active and inactive calls. Rule for the calls: active = growth percent below 10; inactive = the rest.
Could you please pick one outcome from this set? active, inactive

[[record]]
given_smiles = "CC1(C)S[C@@H]2[C@H](NC(=O)[C@H](C(=O)O)c3cccs3)C(=O)N2[C@H]1C(=O)O"
system = "HCT-116 colon"
group_label = "inactive"

[[record]]
given_smiles = "C=C(C)[C@@H]1CC[C@]2(C(=O)OC)CC[C@]3(C)[C@H](CC[C@@H]4[C@@]5(C)CC/C(=N\\OCCC(=NCCC#N)NOCCC#N)C(C)(C)[C@@H]5CC[C@]43C)[C@@H]12"
system = "HCT-116 colon"
group_label = "active"


Now examine the next entry.
Please indicate how the test categorized `CCCCCN(CCCCC)CCCCCCCCN1CCCc2ccccc21` .
inactive

----------
system: DU-145 prostate; assay: NCI-60 one-dose screen, 48 h; conditions: 10 µM unless noted
Compounds without any hit were thinned out: in the full panel of roughly 83,000, 20% have a hit. The source made the active and inactive calls. Rule for the calls: active = growth percent below 10; inactive = the rest.
Could you please pick one outcome from this set? y for active, n for inactive

Before answering, review these 2 worked examples.
[[record]]
given_smiles = "COc1ccc(-c2cc(-c3ccccc3)nc(NCCNc3ccnc4cc(Cl)ccc34)n2)cc1"
group_label = "y"

[[record]]
given_smiles = "CC(=O)CC(=O)SC1=NCCS1"
group_label = "n"


Now examine the next entry.
Please indicate how the test categorized `COc1ccc(OC)c([N+](=O)[O-])c1C(=O)CNC(C)=O` .
n
